- TEST_SUMMARY: logP by HPLC on reversed phase columns, method [a], pH 2.3 with 0.1% phosphoric acid and acetonitrile
- Type: physicochemical
- CONDITIONS: method [a]: pH 2.3, 0.1% phosphoric acid and acetonitrile as eluent; EEC directive 79/831 Annex V.A8, reversed phase HPLC
PROPERTY_LABEL: log p

Some solved cases for reference:
* Cn1nnnc1C(=NOCc1cccc(C#CC2CCCC2)n1)c1ccccc1 | 4.34^[a]
* Cn1nnnc1C(=NOCc1cccc(-c2ccc(C(F)(F)F)cc2)n1)c1ccccc1 | 4.62^[a]
* Cn1nnnc1C(=NOCc1cccc(C#CC[Si](C)(C)C)n1)c1ccccc1 | 4.61^[a]
* Cn1nnnc1C(=NOCc1cccc(-c2ccc(OC(F)(F)F)cc2)n1)c1ccccc1 | 4.73^[a]

# input for lookup
Which log p is reported for this compound? Cn1nnnc1C(=NOCc1csc(/C=C/C2CCCCC2)n1)c1ccccc1
5.14^[a]
